Measurement Description: Safety index, IC50 for human […] to IC50 for Entamoeba histolytica HM1:IMSS
Format: toxicity, cell-based
Measurement Setup: read-out: Ratio IC50
Value Kind: selectivity ratio

Value of selectivity ratio reported for the compound `Fc1ccc(NC(=S)N/N=C\c2c[nH]c3ccccc23)c(F)c1` is > 16.5

###

Measurement Description: Safety index, IC50 for transformed human kidney epithelial cells to IC50 for Entamoeba histolytica HM1:IMSS
Below, each entry is listed alongside its reported selectivity ratio.

{"Molecule": "NC(=S)N/N=C\\c1c[nH]c2ccccc12", "Recorded Value": "> 8.68"}
{"Molecule": "CCCNC(=S)N/N=C\\c1c[nH]c2ccccc12", "Recorded Value": "> 14.6"}
{"Molecule": "Cc1ccccc1NC(=S)N/N=C\\c1c[nH]c2ccccc12", "Recorded Value": "> 48.8"}
{"Molecule": "CCCCN(C)C(=S)N/N=C\\c1c[nH]c2ccccc12", "Recorded Value": "> 18.2"}
{"Molecule": "Cc1ccc(NC(=S)N/N=C\\c2c[nH]c3ccccc23)cc1", "Recorded Value": "> 30.8"}

Value of selectivity ratio reported for the molecule `Cc1cccc(NC(=S)N/N=C\c2c[nH]c3ccccc23)c1` is > 77.5

Value of selectivity ratio reported for the molecule `CCN(CC)C(=S)N/N=C\c1c[nH]c2ccccc12` is > 38.8

Value of selectivity ratio reported for the molecule `CC(C)NC(=S)N/N=C\c1c[nH]c2ccccc12` is > 13.1

###

Measurement Description: Safety index, IC50 for transformed human kidney epithelial cells to IC50 for Entamoeba histolytica HM1:IMSS
Below, each entry is listed alongside its reported selectivity ratio.

Take a look at these entries with their results.
{"Compound Structure String": "CC(C)CNC(=S)N/N=C\\c1c[nH]c2ccccc12", "Value Kind": "selectivity ratio", "Recorded Value": "> 17.4"}
{"Compound Structure String": "Cc1ncc([N+](=O)[O-])n1CCO", "Value Kind": "selectivity ratio", "Recorded Value": "> 55.2"}
{"Compound Structure String": "CCCCNC(=S)N/N=C\\c1c[nH]c2ccccc12", "Value Kind": "selectivity ratio", "Recorded Value": "> 24.4"}
{"Compound Structure String": "S=C(NCc1ccccc1Cl)N/N=C\\c1c[nH]c2ccccc12", "Value Kind": "selectivity ratio", "Recorded Value": "> 30.5"}

Value of selectivity ratio reported for the molecule `CN(Cc1ccccc1)C(=S)N/N=C\c1c[nH]c2ccccc12` is > 40.6
